Molecular target: T1, cyno PRLR (Biacore antigen) (cyno, UniProt A0A2K5WXK1 25-234)
T1 construct: also called cyPRLR
T1 sequence: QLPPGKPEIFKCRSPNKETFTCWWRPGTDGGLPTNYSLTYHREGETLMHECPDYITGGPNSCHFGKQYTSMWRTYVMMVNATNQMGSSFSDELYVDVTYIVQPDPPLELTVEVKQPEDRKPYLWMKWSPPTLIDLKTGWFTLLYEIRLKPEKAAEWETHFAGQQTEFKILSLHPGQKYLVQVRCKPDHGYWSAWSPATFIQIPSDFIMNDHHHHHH
Assay: SPR Biacore
parameter: koff (s⁻¹)
Field format: number, assumed s⁻¹, no unit text.

Example entries and their recorded answers appear below.
Ab8 (antibody, V domains shown, murine monoclonal, isotype G2b; also called murine Ab8) VH: EVQLQQSGPELVKPGASVKISCKASGYTFTDYNIHWVKQSHGKSLEWIGYIYPNNDGTGYNQKFKSKATLTVDNSSSTAYMEVRSLTSEDSAVYYCARGDGNYVGDMDYWGQGTSVTVSS VL: DIQMTQSPASLSASVGETVTITCRASENIYSYLAWYQQKQGKPPQLLVYNAKTLAEGVPSRFSGGGSGTQFSLKINSLQPEDFGSYYCQHHYATPFTFGSGTKLEIK :: 0.00116
Ab27 (antibody, human IgG1, kappa, V domains shown, humanized from Ab5; G1; also called Ab2 HC.1 and Ab2 LC.1a) VH: EVQLVQSGAEVKKPGSSVKVSCKASGYTFTSFWMHWVRQAPGQGLEWMGVIDPSDTYTNYNQKFKGRVTITADESTSTAYMELSSLRSEDTAVYYCARGDYSNWFTYWGQGTLVTVSS VL: DVVMTQTPLSLSVTPGQPASISCRSSQRLVHSNGNTYLHWYLQKPGQSPQLLIYKVSNRFSGVPDRFSGSGSGTDFTLKISRVEAEDVGVYFCSQSTHVPWTFGGGTKVEIKR :: 0.00052
Ab7 (antibody, V domains shown, murine monoclonal, isotype G1; also called murine Ab7) VH: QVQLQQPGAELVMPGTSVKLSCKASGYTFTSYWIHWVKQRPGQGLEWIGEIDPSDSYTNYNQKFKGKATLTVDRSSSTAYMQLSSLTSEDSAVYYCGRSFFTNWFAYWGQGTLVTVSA VL: DVVMTQTPLSLPVSLGDQASISCRSSQSLVHSNGNTYLHWYLQKPGQSPKLLIYKVSNRFSGVPDRFSGSGSGTDFTLKINRVEAEDLGVYFCSQSTHVPFTFGSGTKLEIK :: 3.29e-05

*Q* Provide measured koff value, entry: Ab36 (antibody, human IgG1, kappa, V domains shown, humanized from Ab7; G1; also called Ab4 HC.1 and Ab4 LC.1a) VH: EVQLVQSGAEVKKPGSSVKVSCKASGYTFTSYWIHWVRQAPGQGLEWMGEIDPSDSYTNYNQKFKGRVTITADKSTSTAYMELSSLRSEDTAVYYCARSFFTNWFAYWGQGTLVTVSS VL: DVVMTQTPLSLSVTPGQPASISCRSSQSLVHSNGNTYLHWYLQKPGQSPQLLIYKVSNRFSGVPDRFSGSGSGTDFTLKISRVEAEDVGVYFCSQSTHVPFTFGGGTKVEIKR
*A* 0.00114

*Q* Provide measured koff value, entry: Ab39 (antibody, human IgG1, kappa, V domains shown, humanized from Ab7; G1; also called Ab4 HC.1a and Ab4 LC.1a) VH: EVQLVQSGAEVKKPGSSVKVSCKASGYTFTSYWIHWVRQAPGQGLEWIGEIDPSDSYTNYNQKFKGRATLTVDKSSSTAYMELSSLRSEDTAVYYCARSFFTNWFAYWGQGTLVTVSS VL: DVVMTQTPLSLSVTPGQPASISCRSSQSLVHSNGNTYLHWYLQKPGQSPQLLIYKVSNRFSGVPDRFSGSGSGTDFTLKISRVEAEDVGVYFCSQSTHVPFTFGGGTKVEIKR
*A* 0.000613

*Q* Provide measured koff value, entry: Ab30 (antibody, human IgG1, kappa, V domains shown, humanized from Ab5; G1; also called Ab2 HC.1a and Ab2 LC.1a) VH: EVQLVQSGAEVKKPGSSVKVSCKASGYTFTSFWMHWVRQAPGQGLEWIGVIDPSDTYTNYNQKFKGRATLTVDESSSTAYMELSSLRSEDTAVYYCARGDYSNWFTYWGQGTLVTVSS VL: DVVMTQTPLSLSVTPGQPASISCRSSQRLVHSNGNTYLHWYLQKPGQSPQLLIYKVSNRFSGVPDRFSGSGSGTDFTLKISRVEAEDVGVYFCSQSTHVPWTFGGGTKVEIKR
*A* 0.000523

*Q* Provide measured koff value, entry: chAb8 (antibody, human IgG1, kappa, V domains shown, chimeric, murine variable and human G1/kappa constant regions) VH: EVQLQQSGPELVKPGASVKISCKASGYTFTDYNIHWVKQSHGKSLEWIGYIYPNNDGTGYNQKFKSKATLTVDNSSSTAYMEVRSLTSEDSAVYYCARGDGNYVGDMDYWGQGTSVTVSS VL: DIQMTQSPASLSASVGETVTITCRASENIYSYLAWYQQKQGKPPQLLVYNAKTLAEGVPSRFSGGGSGTQFSLKINSLQPEDFGSYYCQHHYATPFTFGSGTKLEIKT
*A* 0.00177

*Q* Provide measured koff value, entry: Ab48 (antibody, human IgG1, kappa, V domains shown, humanized from Ab8; G1; also called Ab3 HC.1a and Ab3 LC.1a) VH: EVQLVQSGAEVKKPGASVKVSCKASGYTFTDYNIHWVRQAPGQGLEWIGYIYPNNDGTGYNQKFKSRATLTVDNSTSTAYMELRSLRSDDTAVYYCARGDGNYVGDMDYWGQGTTVTVSS VL: DIQMTQSPSSLSASVGDRVTITCRASENIYSYLAWYQQKPGKPPKLLVYNAKTLAEGVPSRFSGSGSGTDFTLTISSLQPEDFATYYCQHHYATPFTFGQGTKLEIKR
*A* 0.00563

*Q* Provide measured koff value, entry: LFA102 (antibody, human IgG1, kappa, V domains shown, humanized IgG1 kappa comparator (WO 2008022295)) VH: EVQLVESGGGLVQPGGSLRLSCAVSGFTFSSYGMSWVRQAPGKRLEWVATVSSGGTYTYYPDSVKGRFTISRDNSKNTLYLQMNSLRAEDTAMYYCARHRGNYYATYYYAMDYWGQGTLVTVSS VL: DIVLTQSPDSLAVSLGERATINCKASKSVSTSGYTYMHWYQQKPGQPPKLLIYLASNRESGVPDRFSGSGSGTDFTLTISPVQAEDVATYYCQHSGELPPSFGQGTKLEIKR
*A* 0.0095

*Q* Provide measured koff value, entry: Ab6 (antibody, V domains shown, murine monoclonal, isotype G1; also called murine Ab6) VH: QVQLQQPGAELVMPGSSVKLSCKASGYTFTTYWMHWVKQRPGQGLEWIGEIDPSDSYSNYNQKFKDKATLTVDKSSSTAYMQLSSLTSEDSAVYYCARNGGLGPAWFSYWGQGTLVTVSA VL: DIVMTQSQKFMSTTVGDRVSITCKASQYVGTAVAWYQQKPGQSPKLLIYSASNRYTGVPDRFTDSGSGTDFTLTISNLQSEDLADYFCQQYSSYPWTFGGGTKLEIK
*A* 0.00109
